Tested on: A549 cells
EXPERIMENTAL_PROTOCOL: MTT assay, A549
Format: cell-based, human
CONDITION_SET: 10 to 100 μM, 24 and 48 h
PARAMETER: Metabolic activity of A549 cells (in words)

COC(=O)Cc1cc(=O)oc2cc(OCCCCCCCN3CCN(CCNC(=O)Cc4cc(=O)oc5cc(O)ccc45)CC3)ccc12 [12d]	significant decrease
COC(=O)Cc1cc(=O)oc2cc(OCCCCCCCCN3CCN(CCNC(=O)Cc4cc(=O)oc5cc(O)ccc45)CC3)ccc12 [12e]	significant decrease

----------
TARGET: human recombinant AChE (Homo sapiens, UniProt P22303)
Sequence (P22303 32-614): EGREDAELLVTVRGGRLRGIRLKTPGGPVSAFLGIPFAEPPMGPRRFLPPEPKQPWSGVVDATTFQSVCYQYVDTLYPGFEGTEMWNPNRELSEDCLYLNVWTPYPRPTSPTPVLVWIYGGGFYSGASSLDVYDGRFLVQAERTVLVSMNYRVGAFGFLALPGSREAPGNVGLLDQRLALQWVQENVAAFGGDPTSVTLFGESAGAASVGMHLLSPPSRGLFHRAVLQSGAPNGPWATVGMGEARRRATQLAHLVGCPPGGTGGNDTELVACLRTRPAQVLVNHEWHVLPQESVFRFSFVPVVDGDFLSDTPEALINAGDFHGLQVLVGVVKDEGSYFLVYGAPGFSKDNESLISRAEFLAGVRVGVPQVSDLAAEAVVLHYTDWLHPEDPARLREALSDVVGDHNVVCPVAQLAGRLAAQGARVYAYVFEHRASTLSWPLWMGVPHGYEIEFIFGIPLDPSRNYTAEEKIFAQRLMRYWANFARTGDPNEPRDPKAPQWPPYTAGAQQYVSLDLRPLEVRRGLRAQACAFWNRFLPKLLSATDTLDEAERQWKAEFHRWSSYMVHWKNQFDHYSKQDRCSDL
EXPERIMENTAL_PROTOCOL: biochemical
CONDITION_SET: mean of at least three experiments, read-out: IC50 ± S.E.M. hAChE
PARAMETER: IC50

Lookup result for COC(=O)Cc1cc(=O)oc2cc(OCCCN3CCN(CCNC(=O)Cc4cc(=O)oc5cc(O)ccc45)CC3)ccc12 [12a] ; measured IC50: > 500 µM

Lookup result for COC(=O)Cc1cc(=O)oc2cc(OCCCCCCN3CCN(CCNC(=O)Cc4cc(=O)oc5cc(O)ccc45)CC3)ccc12 [12c] ; measured IC50: 88.4 µM

Lookup result for COC(=O)Cc1cc(=O)oc2cc(OCCCCCCCN3CCN(CCNC(=O)Cc4cc(=O)oc5cc(O)ccc45)CC3)ccc12 [12d] ; measured IC50: 6.3 µM

Lookup result for COC(=O)Cc1cc(=O)oc2cc(OCCCCCCCCN3CCN(CCNC(=O)Cc4cc(=O)oc5cc(O)ccc45)CC3)ccc12 [12e] ; measured IC50: > 500 µM

Lookup result for COC(=O)Cc1cc(=O)oc2cc(OCCCCN3CCN(CCNC(=O)Cc4cc(=O)oc5cc(O)ccc45)CC3)ccc12 [12b] ; measured IC50: > 500 µM

----------
TARGET: hBChE (human plasma) (Homo sapiens)
Construct: Human plasma was used as a source of BChE
Sequence (P06276 29-602): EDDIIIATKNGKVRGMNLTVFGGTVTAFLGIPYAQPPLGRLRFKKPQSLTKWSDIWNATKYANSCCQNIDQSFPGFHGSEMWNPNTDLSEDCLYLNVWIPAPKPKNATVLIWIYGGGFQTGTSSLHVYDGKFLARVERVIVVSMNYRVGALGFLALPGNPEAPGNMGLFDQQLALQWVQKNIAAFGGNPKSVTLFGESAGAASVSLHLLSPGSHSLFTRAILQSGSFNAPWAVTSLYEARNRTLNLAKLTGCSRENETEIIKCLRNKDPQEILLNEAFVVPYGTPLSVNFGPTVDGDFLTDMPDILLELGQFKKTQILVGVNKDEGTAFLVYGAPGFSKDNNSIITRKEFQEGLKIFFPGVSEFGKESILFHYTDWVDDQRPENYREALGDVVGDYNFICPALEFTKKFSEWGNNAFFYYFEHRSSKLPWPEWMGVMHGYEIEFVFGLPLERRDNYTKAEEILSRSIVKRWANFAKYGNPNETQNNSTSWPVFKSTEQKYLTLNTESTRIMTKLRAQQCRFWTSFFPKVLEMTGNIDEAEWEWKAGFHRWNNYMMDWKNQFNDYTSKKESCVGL
EXPERIMENTAL_PROTOCOL: biochemical
CONDITION_SET: human plasma BChE, mean of at least three experiments; read-out: IC50 ± S.E.M. hBChE
PARAMETER: IC50

Observed IC50, hBChE (human plasma) (Homo sapiens), COC(=O)Cc1cc(=O)oc2cc(OCCCN3CCN(CCNC(=O)Cc4cc(=O)oc5cc(O)ccc45)CC3)ccc12 [12a] : > 500 µM

Observed IC50, hBChE (human plasma) (Homo sapiens), COC(=O)Cc1cc(=O)oc2cc(OCCCCCCN3CCN(CCNC(=O)Cc4cc(=O)oc5cc(O)ccc45)CC3)ccc12 [12c] : > 500 µM

Observed IC50, hBChE (human plasma) (Homo sapiens), COC(=O)Cc1cc(=O)oc2cc(OCCCCN3CCN(CCNC(=O)Cc4cc(=O)oc5cc(O)ccc45)CC3)ccc12 [12b] : > 500 µM

Observed IC50, hBChE (human plasma) (Homo sapiens), COC(=O)Cc1cc(=O)oc2cc(OCCCCCCCN3CCN(CCNC(=O)Cc4cc(=O)oc5cc(O)ccc45)CC3)ccc12 [12d] : 49 µM

Observed IC50, hBChE (human plasma) (Homo sapiens), COC(=O)Cc1cc(=O)oc2cc(OCCCCCCCCN3CCN(CCNC(=O)Cc4cc(=O)oc5cc(O)ccc45)CC3)ccc12 [12e] : > 500 µM

----------
EXPERIMENTAL_PROTOCOL: in vitro
CONDITION_SET: PAMPA, pH 7.4
PARAMETER: Papp (×10⁻⁶ cm/s)
Answer in ×10⁻⁶ cm/s, number only, no unit symbol.

Lookup result for COC(=O)Cc1cc(=O)oc2cc(OCCCN3CCN(CCNC(=O)Cc4cc(=O)oc5cc(O)ccc45)CC3)ccc12 [12a] ; measured Papp: 1.53

Lookup result for COC(=O)Cc1cc(=O)oc2cc(OCCCCCCCCN3CCN(CCNC(=O)Cc4cc(=O)oc5cc(O)ccc45)CC3)ccc12 [12e] ; measured Papp: 13.4

Lookup result for COC(=O)Cc1cc(=O)oc2cc(OCCCCCCCN3CCN(CCNC(=O)Cc4cc(=O)oc5cc(O)ccc45)CC3)ccc12 [12d] ; measured Papp: 2.11

Lookup result for COC(=O)Cc1cc(=O)oc2cc(OCCCCCCN3CCN(CCNC(=O)Cc4cc(=O)oc5cc(O)ccc45)CC3)ccc12 [12c] ; measured Papp: 2.96

----------
Tested on: A549 cells
EXPERIMENTAL_PROTOCOL: MTT assay, A549
Format: cell-based, human
CONDITION_SET: Homo sapiens, A549, 24 h, read-out: IC50 A549 24 h
Method: Human lung carcinoma cell line A549 and CCD-18Co colon fibroblasts were purchased from the American Type Culture Collection (ATCC, Rockville, MD, USA). […] MTT assays were performed in order to evaluate changes in the metabolic activity of cells that had occurred as a consequence of treatment with the biscoumarin derivatives. […] The absorbance of formazan (λ = 584 nm) was measured using a BMG FLUOstar Optima spectrometer (BMG Labtech GmbH, Offenburg, Germany). […]
Please provide measured pIC50 for the entries that follow.
Hey, just a heads up that pIC50 is the negative log base 10 of the concentration in molar.

Lookup result for COC(=O)Cc1cc(=O)oc2cc(OCCCCCCCCN3CCN(CCNC(=O)Cc4cc(=O)oc5cc(O)ccc45)CC3)ccc12 [12e] ; measured pIC50: 4.31

Lookup result for COC(=O)Cc1cc(=O)oc2cc(OCCCCCCCN3CCN(CCNC(=O)Cc4cc(=O)oc5cc(O)ccc45)CC3)ccc12 [12d] ; measured pIC50: 4.03

----------
Tested on: A549 cells
EXPERIMENTAL_PROTOCOL: MTT assay, A549
Type: cell-based, human
CONDITION_SET: Homo sapiens, A549, 24 h, read-out: IC50 A549 24 h
PARAMETER: IC50

Observed IC50, A549 cells, COC(=O)Cc1cc(=O)oc2cc(OCCCCCCN3CCN(CCNC(=O)Cc4cc(=O)oc5cc(O)ccc45)CC3)ccc12 [12c] : > 100 µM

Observed IC50, A549 cells, COC(=O)Cc1cc(=O)oc2cc(OCCCN3CCN(CCNC(=O)Cc4cc(=O)oc5cc(O)ccc45)CC3)ccc12 [12a] : > 100 µM

Observed IC50, A549 cells, COC(=O)Cc1cc(=O)oc2cc(OCCCCN3CCN(CCNC(=O)Cc4cc(=O)oc5cc(O)ccc45)CC3)ccc12 [12b] : > 100 µM

Reference for the values: paper PMC8068036
